Source of measurements: paper PMC10663500

Molecular target: T1, mouse programmed cell death protein 1 Fc fusion protein (mPD-1-Fc), mPD-1 C60S (aa 25-167) (Mus musculus, UniProt Q02242, stabilised)
T1 construct: not cleaved; source: Expi293F, purified (Protein A, SEC; dimeric fraction); not shown: Fc (human), C-terminal, kept
Assay: SPR; Carterra LSA; Fab from the ammonium sulfate precipitate of the culture supernatant immobilised on a NiHC200M chip; hPD-1 (1-1024 nM) or mPD-1-Fc (4-1024 nM) as analyte, fourfold dilution series, no regeneration; HBS-EP pH 7.4, 25 °C; medians over the spots of a construct, KD = koff/kon
Settings: one partner purified
Quantity kind: log10 Kd (log10 of the value in nM)
Base-10 log of Kd, unit nM.

Guide cases for log10 Kd, answers given:
toripalimab Fab L.K55A (Fab, V domains shown, as the heavy chain of Sm3; light chain of Sm3 with this change; numbers count from the chain's first residue; source: Brevibacillus, culture supernatant (ammonium sulfate precipitate); not shown: 6xHis, C-terminal, kept; 6xHN, C-terminal, kept) VH: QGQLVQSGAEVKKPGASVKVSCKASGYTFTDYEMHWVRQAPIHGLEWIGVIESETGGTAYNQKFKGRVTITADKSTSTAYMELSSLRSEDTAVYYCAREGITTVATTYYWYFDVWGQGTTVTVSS VL: DVVMTQSPLSLPVTLGQPASISCRSSQSIVHSNGNTYLEWYLQKPGQSPQLLIYAVSNRFSGVPDRFSGSGSGTDFTLKISRVEAEDVGVYYCFQGSHVPLTFGQGTKLEIK	2.26
toripalimab Fab L.P100K (Fab, V domains shown, as the heavy chain of Sm3; light chain of Sm3 with this change; numbers count from the chain's first residue; source: Brevibacillus, culture supernatant (ammonium sulfate precipitate); not shown: 6xHis, C-terminal, kept; 6xHN, C-terminal, kept) VH: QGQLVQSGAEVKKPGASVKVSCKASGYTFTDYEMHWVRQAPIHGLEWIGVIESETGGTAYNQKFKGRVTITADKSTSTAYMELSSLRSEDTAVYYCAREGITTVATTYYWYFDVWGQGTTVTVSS VL: DVVMTQSPLSLPVTLGQPASISCRSSQSIVHSNGNTYLEWYLQKPGQSPQLLIYKVSNRFSGVPDRFSGSGSGTDFTLKISRVEAEDVGVYYCFQGSHVKLTFGQGTKLEIK	1.78
toripalimab Fab L.V99S (Fab, V domains shown, as the heavy chain of Sm3; light chain of Sm3 with this change; numbers count from the chain's first residue; source: Brevibacillus, culture supernatant (ammonium sulfate precipitate); not shown: 6xHis, C-terminal, kept; 6xHN, C-terminal, kept) VH: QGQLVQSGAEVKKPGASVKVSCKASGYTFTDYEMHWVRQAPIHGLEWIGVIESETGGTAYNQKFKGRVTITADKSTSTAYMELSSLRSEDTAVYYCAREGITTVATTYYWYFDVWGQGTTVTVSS VL: DVVMTQSPLSLPVTLGQPASISCRSSQSIVHSNGNTYLEWYLQKPGQSPQLLIYKVSNRFSGVPDRFSGSGSGTDFTLKISRVEAEDVGVYYCFQGSHSPLTFGQGTKLEIK	0.65
toripalimab Fab L.I29Y (Fab, V domains shown, as the heavy chain of Sm3; light chain of Sm3 with this change; numbers count from the chain's first residue; source: Brevibacillus, culture supernatant (ammonium sulfate precipitate); not shown: 6xHis, C-terminal, kept; 6xHN, C-terminal, kept) VH: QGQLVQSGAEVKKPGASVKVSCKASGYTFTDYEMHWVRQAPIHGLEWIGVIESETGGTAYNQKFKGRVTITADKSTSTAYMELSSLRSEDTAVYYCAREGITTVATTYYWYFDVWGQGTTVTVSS VL: DVVMTQSPLSLPVTLGQPASISCRSSQSYVHSNGNTYLEWYLQKPGQSPQLLIYKVSNRFSGVPDRFSGSGSGTDFTLKISRVEAEDVGVYYCFQGSHVPLTFGQGTKLEIK	1.91

# context switch: different binder, same log10 Kd
QUERY: // fetch log10 Kd given entry toripalimab Fab H.A105Y (Fab, V domains shown, heavy chain of Sm3 with this change; numbers count from the chain's first residue; as the light chain of Sm3; source: Brevibacillus, culture supernatant (ammonium sulfate precipitate); not shown: 6xHis, C-terminal, kept; 6xHN, C-terminal, kept) VH: QGQLVQSGAEVKKPGASVKVSCKASGYTFTDYEMHWVRQAPIHGLEWIGVIESETGGTAYNQKFKGRVTITADKSTSTAYMELSSLRSEDTAVYYCAREGITTVYTTYYWYFDVWGQGTTVTVSS VL: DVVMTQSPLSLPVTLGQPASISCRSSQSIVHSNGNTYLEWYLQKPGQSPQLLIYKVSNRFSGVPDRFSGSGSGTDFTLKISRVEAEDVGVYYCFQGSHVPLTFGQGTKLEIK
RESULT: 1.98
